- TARGET_ENTITY: Gag-Pol polyprotein (Human immunodeficiency virus type 1 group M subtype B (isolate HXB2)) (UniProt P04585)
- ASSAY_EXPLANATION: HIV-1 RT RNase H inhibitors, primary screen, biochemical, fluorescence (AID 565)
- CONDITION_DESCRIPTION: RT-RNase H RNA/DNA duplex cleavage, at 10 µM, stronger effect = higher value
Hit rate of the full screen: of about 65,000 compounds, about 1,200 (1.8%) were called active. For the sample, actives were picked, then their nearest neighbours and some compounds at random.
VALUE_KIND: inhibition (%)
The response must be a number in % with no trailing unit.

Looking up c1ccc(CSc2nnc(-c3ccco3)c(-c3ccco3)n2)cc1 , I see its inhibition listed as 97

For N#Cc1nc(-c2ccc(OCc3ccccc3)cc2)oc1NCCCN1CCOCC1 the molecule record lists inhibition as -42.2

The recorded inhibition for CCOC(=O)N1CCC(NC(=O)c2cnn3ccccc23)CC1 is -4.53

Looking up CCOc1ccc(Cn2c(SCCCCC#N)nc3c2c(=O)n(C)c(=O)n3C)cc1OCC , I see its inhibition listed as 29.2

Value of measured inhibition for the entry CCN1CCc2c(C#N)c(NCc3ccccc3)nc(NCCO)c2C1 : 10.1

Recorded result, CCOC(=O)CSc1nc2c(sc(=S)n2CCc2ccccc2)c(=O)n1Cc1ccco1 , inhibition: 60.1

For Cc1cc(C(F)(F)F)nn1-c1nc(-c2ccco2)cc(C(F)(F)F)n1 the molecule record lists inhibition as 94.4

Entry O=C(Nn1cc(C(=O)N2CCN(c3ccccc3F)CC2)c2ccccc2c1=O)c1cnccn1 ; inhibition = -2.41

Lab book: inhibition of Cc1cccc(-n2c(N)c(C(=O)N3CCN(C)CC3)sc2=S)c1 noted as 90.6

Just so you know, measured inhibition for FC(F)(F)c1cc(-c2ccco2)nc(N2CCOCC2)n1 came out at -9.98

What the record says about Cc1ccc(-n2c(N)c(C(=O)N3CCOCC3)sc2=S)c(C)c1 : inhibition is 79.7

inhibition reported for this molecule c1ccc(CSc2nnc(-c3ccco3)n2Cc2ccccc2)cc1 : -24.3

The reported inhibition of the molecule Cn1c(=NC(=O)c2ccco2)sc2cccc(F)c21 was -27.2

Lab book: inhibition of CCOC(=O)c1nc(N)sc1C(=O)OCC noted as -13.4

Form: molecule = COc1ccccc1NC(=O)CSc1nc2sc(C)c(C)c2c(=O)n1Cc1ccco1 ; inhibition = 9.92

The molecule CCOC(=O)CSc1nnc(CNC(=O)c2cccs2)n1-c1ccccc1 showed inhibition equal to -126

Measured inhibition, COCCCNC(=O)COc1cc(C)c(Cl)c(C)c1 : -96.5

get_value(item= CCOC(=O)c1sc(=S)n(-c2cccc(OC)c2)c1N , readout=inhibition) returns 65.1

Item: CN1CCC2(CC1)NC(=O)NC2=O | inhibition: -0.41

Query CCOc1ccc(Nc2oc(Cc3ccccc3)nc2C#N)cc1 yields inhibition of -28.4

Per the records, this molecule ( Clc1ccc(C2CC(c3cccs3)n3ncnc3N2)cc1Cl (stereo unspecified) ) has inhibition equal to -4.72

Measured inhibition, Clc1ccccc1CSc1nnc(-c2ccco2)c(-c2ccco2)n1 : 55.3

Consider CN1CCN(C(=O)C2C3C=CC(C3)C2C(=O)O)CC1 (stereo unspecified) . Its measured inhibition is 0.5

Query Cc1nc2ccccc2c(=O)n1CCCn1ccnc1 yields inhibition of -6.99

Kindly note the recorded inhibition for CCOC(=O)Cn1c(SC)nc2sc3c(c2c1=O)CC(C)(C)OC3 , which is -12.4

inhibition recorded for this molecule, CCOC(=O)CSc1nc2c(c(=O)n(C)c(=O)n2C)n1Cc1ccccc1F , is -12.1

Summary for this molecule, Cc1ccccc1OCC(=O)Nc1ccc(N2CCN(C(=O)C(C)C)CC2)c(Cl)c1 : inhibition is -29

inhibition measured on CCC(=O)Nc1sc(C(=O)N2CCCCC2)c(C)c1C#N = 0.57

Data point: CC1CCCN(C(=O)Cn2c(=O)oc3ccccc32)C1 (stereo unspecified) ; inhibition = 7.78

Item: COc1ccc(Nc2oc(-c3ccccc3Cl)nc2C#N)cc1 | inhibition: 54.5

Lab note: Cc1ccc(C)n1-c1ccncc1 gave inhibition of -2.45

get_value(item= CCOC(=O)Cn1c(N)c(C(=O)OC)sc1=S , readout=inhibition) returns 56.2

Form field inhibition, entry Cc1cccc(-n2c(C)nc3cc(C(=O)N4CCC5(CC4)OCCO5)ccc32)c1 : 3.01

Looking up CCCc1nc2ccccc2c(=O)n1/N=C/c1ccc(O)c(O)c1 , I see its inhibition listed as 88.4

Given item CCc1ccc2oc(=O)cc(CN3CCCCC3C)c2c1 (stereo unspecified) , the value recorded as its inhibition is -13.3

Form field inhibition, entry N#Cc1ccccc1-n1c(N)c(C(=O)N2CCCC2)sc1=S : 68

Note to self: inhibition recorded for CCN(CC)S(=O)(=O)c1ccc2nc(COC(=O)c3n[nH]c4ccccc34)[nH]c2c1 was 55.6

Reported inhibition of COc1ccc(CNC(=O)c2cc3c(=O)n4ccccc4nc3n(CC3CCCO3)c2=N)cc1 (stereo unspecified) : -18.1

Record summary for CCCCc1nc2ccccc2c(=O)n1NC(=O)c1c(O)c2cccc3c2n(c1=O)CC3 : reported inhibition = 4.26

Quick note, inhibition for O=C(CN1C(=O)CCC1=O)Nc1ccc(S(=O)(=O)N2CCOCC2)cc1 landed at -11.6

Reported inhibition of CCOC(=O)c1ccn(-c2nc(-c3ccco3)cc(C(F)(F)F)n2)n1 : -4.86

The molecule Cc1cc(C)c2c(n1)nn1c(N3CCN(c4cccc(Cl)c4)CC3)cc(C)nc21 showed inhibition equal to 29.6

Value of measured inhibition for the entry COc1ccc(N2CCN(CCNC(=O)CCN3C(=O)COc4ccccc43)CC2)cc1 : 7.09

For reference, reported inhibition for c1ccc(-c2nnc3n2NC(c2ccc4c(c2)OCO4)S3)cc1 (stereo unspecified) stands at 67.9

Entry under test: Nc1cc(=O)nc(SCc2ccccc2)n1Cc1ccco1 . Its inhibition was -80.9

Reported inhibition of Cc1cccc(-n2c(N)cc(=O)nc2SC(C)C(=O)NC2CCCCC2)c1 (stereo unspecified) : -4.66
